system: HRgpA-6H (Porphyromonas gingivalis) (UniProt P28784)
run description: ELISA, FASEBA Fab supernatant on coated HRgpA-6H

binder: KB001 mouse Fab variant VL S57L (Fab, V domains shown) VH: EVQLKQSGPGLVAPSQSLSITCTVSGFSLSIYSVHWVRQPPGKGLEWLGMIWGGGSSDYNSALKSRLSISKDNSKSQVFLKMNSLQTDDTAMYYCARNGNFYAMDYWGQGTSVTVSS VL: QIVLTQSPAIMSASLGERVTMTCTASSSVSSSFLHWYQQKPGSSPQLWIYSTSNLALGVPARFSGSGSGTSYSLTISSMEAEDAATYYCHQYHHSPYIYTFGGGTKLEIK
OD450 nm: 0.781

binder: KB001 mouse Fab variant VL A56P (Fab, V domains shown) VH: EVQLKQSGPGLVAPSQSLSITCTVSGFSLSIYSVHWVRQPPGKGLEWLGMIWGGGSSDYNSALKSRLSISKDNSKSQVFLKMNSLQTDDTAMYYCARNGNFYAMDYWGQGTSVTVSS VL: QIVLTQSPAIMSASLGERVTMTCTASSSVSSSFLHWYQQKPGSSPQLWIYSTSNLPSGVPARFSGSGSGTSYSLTISSMEAEDAATYYCHQYHHSPYIYTFGGGTKLEIK
OD450 nm: 0.748

binder: KB001 mouse Fab variant VL L55S (Fab, V domains shown) VH: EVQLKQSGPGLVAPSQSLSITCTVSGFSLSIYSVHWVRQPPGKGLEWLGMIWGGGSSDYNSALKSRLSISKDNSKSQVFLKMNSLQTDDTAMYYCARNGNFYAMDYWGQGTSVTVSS VL: QIVLTQSPAIMSASLGERVTMTCTASSSVSSSFLHWYQQKPGSSPQLWIYSTSNSASGVPARFSGSGSGTSYSLTISSMEAEDAATYYCHQYHHSPYIYTFGGGTKLEIK
OD450 nm: 0.655

binder: KB001 mouse Fab variant VL Y97V (Fab, V domains shown) VH: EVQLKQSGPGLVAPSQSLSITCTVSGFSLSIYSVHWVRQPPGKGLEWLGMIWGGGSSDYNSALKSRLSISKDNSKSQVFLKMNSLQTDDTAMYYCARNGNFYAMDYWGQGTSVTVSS VL: QIVLTQSPAIMSASLGERVTMTCTASSSVSSSFLHWYQQKPGSSPQLWIYSTSNLASGVPARFSGSGSGTSYSLTISSMEAEDAATYYCHQYHHSPVIYTFGGGTKLEIK
OD450 nm: 0.662

binder: KB001 mouse Fab variant VL S95T (Fab, V domains shown) VH: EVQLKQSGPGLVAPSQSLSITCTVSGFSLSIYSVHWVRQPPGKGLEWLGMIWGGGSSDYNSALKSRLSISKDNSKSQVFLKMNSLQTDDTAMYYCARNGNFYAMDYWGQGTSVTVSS VL: QIVLTQSPAIMSASLGERVTMTCTASSSVSSSFLHWYQQKPGSSPQLWIYSTSNLASGVPARFSGSGSGTSYSLTISSMEAEDAATYYCHQYHHTPYIYTFGGGTKLEIK
OD450 nm: 0.871

binder: KB001 mouse Fab variant VL A56T (Fab, V domains shown) VH: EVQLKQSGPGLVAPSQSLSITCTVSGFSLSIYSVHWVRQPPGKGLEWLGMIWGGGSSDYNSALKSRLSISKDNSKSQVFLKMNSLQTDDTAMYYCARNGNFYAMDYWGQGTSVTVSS VL: QIVLTQSPAIMSASLGERVTMTCTASSSVSSSFLHWYQQKPGSSPQLWIYSTSNLTSGVPARFSGSGSGTSYSLTISSMEAEDAATYYCHQYHHSPYIYTFGGGTKLEIK
OD450 nm: 0.731

binder: KB001 mouse Fab variant VL T100I (Fab, V domains shown) VH: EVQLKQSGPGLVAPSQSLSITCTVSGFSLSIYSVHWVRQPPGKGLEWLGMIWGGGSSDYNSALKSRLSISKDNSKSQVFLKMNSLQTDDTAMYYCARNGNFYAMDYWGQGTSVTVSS VL: QIVLTQSPAIMSASLGERVTMTCTASSSVSSSFLHWYQQKPGSSPQLWIYSTSNLASGVPARFSGSGSGTSYSLTISSMEAEDAATYYCHQYHHSPYIYIFGGGTKLEIK
OD450 nm: 0.493

binder: KB001 mouse Fab variant VL T100P (Fab, V domains shown) VH: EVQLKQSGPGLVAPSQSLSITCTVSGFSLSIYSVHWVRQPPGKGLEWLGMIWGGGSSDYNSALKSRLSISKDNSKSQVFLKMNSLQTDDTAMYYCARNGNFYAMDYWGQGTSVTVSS VL: QIVLTQSPAIMSASLGERVTMTCTASSSVSSSFLHWYQQKPGSSPQLWIYSTSNLASGVPARFSGSGSGTSYSLTISSMEAEDAATYYCHQYHHSPYIYPFGGGTKLEIK
OD450 nm: 0.46

binder: KB001 mouse Fab variant VL Y97I (Fab, V domains shown) VH: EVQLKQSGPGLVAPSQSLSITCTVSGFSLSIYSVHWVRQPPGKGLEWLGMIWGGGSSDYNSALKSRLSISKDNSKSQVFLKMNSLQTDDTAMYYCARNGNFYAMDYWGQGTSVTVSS VL: QIVLTQSPAIMSASLGERVTMTCTASSSVSSSFLHWYQQKPGSSPQLWIYSTSNLASGVPARFSGSGSGTSYSLTISSMEAEDAATYYCHQYHHSPIIYTFGGGTKLEIK
OD450 nm: 0.667

binder: KB001 mouse Fab variant VL S57M (Fab, V domains shown) VH: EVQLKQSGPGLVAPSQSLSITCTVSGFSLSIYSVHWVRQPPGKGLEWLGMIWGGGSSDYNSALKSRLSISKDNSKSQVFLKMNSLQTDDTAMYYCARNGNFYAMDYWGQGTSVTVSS VL: QIVLTQSPAIMSASLGERVTMTCTASSSVSSSFLHWYQQKPGSSPQLWIYSTSNLAMGVPARFSGSGSGTSYSLTISSMEAEDAATYYCHQYHHSPYIYTFGGGTKLEIK
OD450 nm: 0.745
